- TARGET_OF_ASSAY: T1, human CaSR wild type (hCaSR WT) (Homo sapiens, UniProt P41180, E1011Q)
- T1 construct: mGlu5 signal peptide (N, cleaved yes); expressed in transfected cells
- T1 sequence (P41180 20-1078 E1011Q): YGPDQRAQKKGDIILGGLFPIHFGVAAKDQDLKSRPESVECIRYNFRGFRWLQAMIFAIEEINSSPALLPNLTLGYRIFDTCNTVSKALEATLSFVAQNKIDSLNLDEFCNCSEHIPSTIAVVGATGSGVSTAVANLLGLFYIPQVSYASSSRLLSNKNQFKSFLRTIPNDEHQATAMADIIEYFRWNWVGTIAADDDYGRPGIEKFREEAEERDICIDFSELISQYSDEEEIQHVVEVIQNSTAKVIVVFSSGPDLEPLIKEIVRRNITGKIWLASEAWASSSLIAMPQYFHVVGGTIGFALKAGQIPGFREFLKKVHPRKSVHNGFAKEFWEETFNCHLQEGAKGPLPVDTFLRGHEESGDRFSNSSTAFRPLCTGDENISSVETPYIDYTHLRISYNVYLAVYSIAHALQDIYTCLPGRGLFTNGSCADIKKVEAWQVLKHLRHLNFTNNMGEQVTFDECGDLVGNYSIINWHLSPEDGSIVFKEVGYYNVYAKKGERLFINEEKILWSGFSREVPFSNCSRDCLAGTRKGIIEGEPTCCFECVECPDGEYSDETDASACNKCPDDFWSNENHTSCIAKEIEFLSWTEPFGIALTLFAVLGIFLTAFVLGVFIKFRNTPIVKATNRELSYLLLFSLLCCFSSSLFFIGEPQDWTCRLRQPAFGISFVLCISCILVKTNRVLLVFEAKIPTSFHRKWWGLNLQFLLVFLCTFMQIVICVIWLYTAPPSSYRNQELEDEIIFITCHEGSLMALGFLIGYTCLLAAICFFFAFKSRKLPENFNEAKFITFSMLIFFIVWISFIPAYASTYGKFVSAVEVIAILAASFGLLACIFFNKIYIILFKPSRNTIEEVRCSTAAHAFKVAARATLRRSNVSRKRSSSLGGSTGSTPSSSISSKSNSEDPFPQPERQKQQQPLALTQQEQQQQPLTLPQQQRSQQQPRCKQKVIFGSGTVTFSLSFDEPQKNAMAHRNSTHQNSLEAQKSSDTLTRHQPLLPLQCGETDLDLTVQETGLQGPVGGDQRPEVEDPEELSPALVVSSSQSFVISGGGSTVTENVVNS
- PROCEDURE_DETAILS: IP1 accumulation assay, Flp-In HEK293 HA-hCaSR WT cells
- Assay type: cell-based
- EXPERIMENTAL_CONTEXT: IP1 accumulation at EC20 Ca2+; three independent experiments in triplicate
Entries and their measured Potency (pEC50 ± S.E.M.), human ortholog follow.
Just the number.

Input line: For the molecule shown here, Nb37: llama-derived CaSR-specific nanobody acting as PAM, SEQ ID NO:4 (protein, CaSR Nb37) VHH: QVQLVESGGGLVQPGDSLRVSCAASGGSFRSYAMAWFRRAPGKEREFVAAMSGTYGSTIYADSMKGRFTISRDNAKKMVYLRMNSLRAEDTAVYYCAGYYSGAYYGTPKTDYTEYDSWGQGTQVTVSS , give the reported Potency (pEC50 ± S.E.M.), human ortholog.
Output line: 6.22

Input line: And what about the molecule Nb11: llama-derived CaSR-specific nanobody acting as PAM, SEQ ID NO:6 (protein, CaSR Nb11) VHH: QVQLVESGGGLVQAGGSLRLSCAASGRTFSTYRMGWFRQGPGKEREFVAAITATGVKTYYTDSVKGRFTISRDNAKNTVYLQMNSVQPEDTAVYSCAARIKAIFTAQQAATITDYDYWGQGTQVTVSS ?
Output line: 6.28

Input line: Try the molecule Nb15: llama-derived CaSR-specific nanobody acting as PAM, SEQ ID NO:10 (protein, CaSR Nb15) VHH: QVQLVESGGGLVQAGGSLRLSCAASGRTFNNYHMAWFRQAPGKEREFAAAISRRAGTTYYADSVKGRFTISRDNAKNTVYLQMNSLKPEDTAVYYCAADPDTYGVSYLARKYDYWGQGTQVTVSS
Output line: 6.59

Input line: And the next one, Nb36: llama-derived CaSR-specific nanobody acting as PAM, SEQ ID NO:7 (protein, CaSR Nb36) VHH: QVQLVESGGGLVQAGESLRLSCAASGRTFSSYRMGWFRQGPGKEREFVAAITATGVRTYYADSVKGRFTISRDNAKNTVYLQMNSLQPDDTAVYLCAARRKAIFSVQQALTITDYDDWGQGTQVTVSS ?
Output line: 6.78
